B1: library; a variant is named by its letters at N, in order (parent)
chain: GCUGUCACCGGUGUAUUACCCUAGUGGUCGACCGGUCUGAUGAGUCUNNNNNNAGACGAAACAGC

- Variants of: B1
- experiment: normalized RNA/DNA level without ligand (relative to sTRSVctl = 100) (log10 (% of sTRSVctl)); ligand: hypoxanthine (xanthine aptamer); higher = less ribozyme self-cleavage, higher mRNA level
- applied-conditions: HEK293T, reporter: mCherry (pCS4076), ligand present: no
normalized RNA/DNA level without ligand (log10) for assorted variants
Give the figure by itself; no unit, no explanation.

- ordered-residues: "GCUGUCACCGGUGUAUUACCCUAGUGGUCGACCGGUCUGAUGAGUCUAAGAAGAGACGAAACAGC [AAGAAG]"
  numeric-readout: 1.04

# input Supply recorded normalized RNA/DNA level without ligand (log10) for GCUGUCACCGGUGUAUUACCCUAGUGGUCGACCGGUCUGAUGAGUCUUUCGGCAGACGAAACAGC [UUCGGC] here.
# output 1.89
